All values here come from PubChem BioAssay (NCI).

# Tested on: SN12C renal
# assay-comment: NCI-60 one-dose screen, 48 h
# experimental-setup: 10 µM unless noted
The panel holds about 83,000 compounds, 20% with a hit somewhere; the sample as a whole holds those more often. The source made the active and inactive calls. Rule for the calls: active = growth percent below 10; inactive = the rest.
Classes used: y for active, n for inactive

[
  {
    "compound": "Cc1cnc(C(=O)NNc2nc3sc4c(c3c(=O)n2C)C(C)CCC4)cn1 (configuration not stated)",
    "label-class": "y"
  },
  {
    "compound": "CCN1C(=O)N(CC)C2C1NN=c1s/c(=C\\c3cccc([N+](=O)[O-])c3)c(=O)n12 (configuration not stated)",
    "label-class": "n"
  },
  {
    "compound": "CC(=O)OC[C@]12CCC(C)(C)C[C@H]1[C@@]1(O)[C@H](O)C[C@@H]3[C@@]4(C)CCCNC(C)(C)[C@@H]4CC[C@@]3(C)[C@]1(C)CC2",
    "label-class": "n"
  },
  {
    "compound": "COc1ccc(N2CCC(=O)NC2=S)cc1",
    "label-class": "n"
  },
  {
    "compound": "COc1ccc(NC(=O)c2sc3nc(C)c(C(=O)/C=C/c4cccc(OC)c4)cc3c2N)cc1",
    "label-class": "n"
  },
  {
    "compound": "Clc1ccc(CNc2c3ccccc3nc3ccccc23)cc1",
    "label-class": "n"
  },
  {
    "compound": "C#CCn1cnc2c(Nc3cccc(NC(=O)C=C)c3)ncnc21",
    "label-class": "n"
  },
  {
    "compound": "O=C1/C(=C/c2ccc(-c3ccc(Br)cc3)o2)SC(=S)N1CCc1ccc(O)cc1",
    "label-class": "n"
  },
  {
    "compound": "CC(O)c1cnc(/C=C2\\SC(=S)N(Cc3ccccc3)C2=O)s1 (configuration not stated)",
    "label-class": "n"
  },
  {
    "compound": "C/C(=C(/c1ccc(Cl)cc1)c1ccc(OCCN2CCCC2)cc1)c1ccc(Cl)cc1",
    "label-class": "n"
  },
  {
    "compound": "O=C1Nc2ccccc2/C1=C\\c1nc(-c2ccccc2F)n2ccccc12",
    "label-class": "n"
  },
  {
    "compound": "O=C1/C(=C/c2ccc(F)cc2)COc2ccc(O)c(O)c21",
    "label-class": "y"
  },
  {
    "compound": "Cc1ccc(-c2csc(NC(=O)CN3CCN(c4cc5c(cc4F)c(=O)c(C(=O)O)cn5C4CC4)CC3)n2)cc1",
    "label-class": "n"
  },
  {
    "compound": "S=C(Nc1ccc(-c2nc(N3CCOCC3)c3cccn3n2)cc1)Nc1cccnc1",
    "label-class": "n"
  },
  {
    "compound": "CCN(c1ccc(Cl)cc1)c1nc(-c2ccc([N+](=O)[O-])cc2)cs1",
    "label-class": "n"
  },
  {
    "compound": "CCOC(=O)C1=C(NC)OCC1=O",
    "label-class": "n"
  },
  {
    "compound": "COc1ccc(/C=C2\\COc3ccc(O)c(O)c3C2=O)cc1",
    "label-class": "y"
  },
  {
    "compound": "CC(C)c1ccc(NC(=O)Nc2ccc(NC(=O)CCCC(=O)NOCc3ccccc3)cc2)cc1",
    "label-class": "n"
  },
  {
    "compound": "Cc1nc2ncnc(Cl)c2[nH]1",
    "label-class": "n"
  },
  {
    "compound": "Nc1c(C(=O)Nc2ccccc2Cl)sc2nc3c(cc12)C(O)CCC3 (configuration not stated)",
    "label-class": "n"
  },
  {
    "compound": "CC(=O)n1nc(C(=O)OC(C)C)c2cc(C)c(C)cc21",
    "label-class": "n"
  },
  {
    "compound": "CCCCCCC1(C)NCCO1 (configuration not stated)",
    "label-class": "n"
  },
  {
    "compound": "O=C(Cn1cc(CN2C(=O)c3ccccc3S2(=O)=O)nn1)Nc1nc2ccccc2s1",
    "label-class": "n"
  },
  {
    "compound": "Fc1cc2c(cc1Cl)N(c1ncnc3ccc(-c4cnc5[nH]ncc5c4)cc13)CC2",
    "label-class": "n"
  },
  {
    "compound": "Oc1c(Cl)cc(Cl)c2ccc(Cn3cc(-c4cc(C(F)(F)F)cc(C(F)(F)F)c4)nn3)nc12",
    "label-class": "n"
  },
  {
    "compound": "CC(C)(C)[Si](C)(C)O[C@H]1C(=O)C=CN2CC=C[C@@H]12",
    "label-class": "n"
  },
  {
    "compound": "COc1ccc(Cc2cc(-c3ccccc3)nn(Cc3ccccc3)c2=O)cc1OC",
    "label-class": "n"
  },
  {
    "compound": "Cc1ccccc1/C=C1\\CN(C(=O)OC(C)(C)C)C/C(=C\\c2ccccc2C)C1=O",
    "label-class": "y"
  },
  {
    "compound": "C1=CN2CC(c3ccccc3)=NNC2c2ccccc21 (configuration not stated)",
    "label-class": "n"
  },
  {
    "compound": "COc1ccc(-c2nn(-c3ccccc3)cc2/C=C2/SC(=S)N(C)C2=O)cc1",
    "label-class": "n"
  },
  {
    "compound": "COc1ccc(-c2nc3c(c(-c4ccccc4)nn3-c3ccccc3)c(-c3ccc(N4CCN(C)CC4)cc3)c2C#N)cc1",
    "label-class": "n"
  },
  {
    "compound": "O=C(CCC(=O)N/N=C/c1ccccc1O)N/N=C/c1ccccc1O",
    "label-class": "n"
  },
  {
    "compound": "CCOC(=O)c1c2c(n3ccc(C)cc13)C(=O)c1ccccc1C2=O",
    "label-class": "n"
  },
  {
    "compound": "Cc1ccc(C2=Nc3c(N)ncnc3NC(c3ccc4c(c3)OCO4)C2)cc1 (configuration not stated)",
    "label-class": "n"
  },
  {
    "compound": "C#CCOc1cccc(Nc2ncnc3ccc(NC(=O)CCl)cc23)c1",
    "label-class": "y"
  },
  {
    "compound": "COP(=O)(OC)C(C)(C)CC(=O)CC(C#N)(C#N)C(C#N)C#N",
    "label-class": "n"
  },
  {
    "compound": "Cc1nnc(-n2c(O)cc(=O)n(-c3ccccc3)c2=S)nc1/C=C/c1ccc(N(C)C)cc1",
    "label-class": "n"
  },
  {
    "compound": "N#CC1C=CN(CC(N)=O)c2ccc3cccnc3c21 (configuration not stated)",
    "label-class": "n"
  },
  {
    "compound": "CN1C(=O)N(C)C2Nn3c(s/c(=C\\c4ccc(C(F)(F)F)cc4)c3=O)=NC21 (configuration not stated)",
    "label-class": "n"
  },
  {
    "compound": "COc1cc(/C=C/C(=O)c2cccc(Nc3nc(Nc4ccccc4)nc(Nc4ccccc4)n3)c2)cc(OC)c1OC",
    "label-class": "n"
  },
  {
    "compound": "CC1=Nc2cnc(Nc3ccc(OCCN4CCCCC4)cc3)nc2Nc2ccccc21",
    "label-class": "n"
  },
  {
    "compound": "Oc1ccc(CN2CCC(N3CCCCC3)CC2)c2cccnc12",
    "label-class": "n"
  }
]
